PROTOCOL_DETAILS: Determination of blood concentration in rats after ig administration
Type: in vivo
CONDITION_DETAILS: male SD rats, ig 200 mg/kg, plasma; hydrochloride
Structures can show the parent of a compound that is named as a salt.
MEASUREMENT_NAME: Cmax (ng/mL)
Use ng/mL as the unit, but write only the number.

{"columns": ["COMPOUND", "UNIT", "Cmax"],
 "data": [
  ["COc1ccc2cc3[n+](cc2c1OC)CCc1cc(O)c(O)cc1-3 [crystal form B, demethyleneberberine hydrochloride]", "ng/mL", 642],
  ["COc1ccc2cc3[n+](cc2c1OC)CCc1cc(O)c(O)cc1-3 [crystal form D, demethyleneberberine hydrochloride]", "ng/mL", 1234],
  ["COc1ccc2cc3[n+](cc2c1OC)CCc1cc(O)c(O)cc1-3 [crystal form C, demethyleneberberine hydrochloride]", "ng/mL", 1262]
]}

Moving on to another compound below.
// query Entry COc1ccc2cc3[n+](cc2c1OC)CCc1cc(O)c(O)cc1-3 [crystal form A, demethyleneberberine hydrochloride] : reported Cmax = ?
// result 292

Origin of values: patent US11242340B2
